- SYSTEM: human plasma kallikrein (human, UniProt P03952 20-390; P03952 391-638)
- Sequence (P03952 20-390, chain 1 of 2): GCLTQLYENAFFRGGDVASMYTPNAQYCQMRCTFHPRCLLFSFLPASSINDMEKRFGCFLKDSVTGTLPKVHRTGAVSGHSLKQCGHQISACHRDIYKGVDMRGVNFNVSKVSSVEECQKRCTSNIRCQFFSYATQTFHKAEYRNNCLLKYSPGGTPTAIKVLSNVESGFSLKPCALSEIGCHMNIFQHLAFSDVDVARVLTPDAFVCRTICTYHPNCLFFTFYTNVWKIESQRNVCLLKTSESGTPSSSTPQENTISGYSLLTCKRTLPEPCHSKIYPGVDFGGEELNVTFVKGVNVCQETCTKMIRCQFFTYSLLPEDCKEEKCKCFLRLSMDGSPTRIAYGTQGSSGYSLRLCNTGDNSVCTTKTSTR
- Sequence (P03952 391-638, chain 2 of 2): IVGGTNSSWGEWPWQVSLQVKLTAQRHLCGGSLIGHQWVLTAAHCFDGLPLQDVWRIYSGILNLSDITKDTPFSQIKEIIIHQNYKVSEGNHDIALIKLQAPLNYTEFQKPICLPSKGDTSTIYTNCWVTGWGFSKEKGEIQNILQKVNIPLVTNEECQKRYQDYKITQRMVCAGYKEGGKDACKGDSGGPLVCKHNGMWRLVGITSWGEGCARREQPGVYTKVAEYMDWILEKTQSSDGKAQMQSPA
- ASSAY_INFO: cell-based or functional assay

# BINDER, % inhibition at 10 nM / %
rows = [
    ("M198-A06 (Fab, V domains shown, Tested as Fab; printed HC runs into CH1) VH: EVQLLESGGGLVQPGGSLRLSCAASGFTFSIYSMHWVRQAPGKGLEWVSSIYSSGGPTKYADSVKGRFTISRDNSKNTLYLQMNSLRAEDTAVYYCAYRRTGIPRRDAFDIWGQGTMVTVSS VL: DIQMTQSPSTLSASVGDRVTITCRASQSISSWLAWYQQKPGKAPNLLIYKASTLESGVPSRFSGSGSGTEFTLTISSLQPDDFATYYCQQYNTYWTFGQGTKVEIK", 96.1),
    ("M196-D02 (Fab, V domains shown) VH: EVQLLESGGGLVQPGGSLRLSCAASGFTFSVYSMHWVRQAPGKGLEWVSVIGPSGGITLYADSVKGRFTISRDNSKNTLYLQMNSLRAEDTAVYYCAYRRTGIPRRDAFDIWGQGTMVTVSS VL: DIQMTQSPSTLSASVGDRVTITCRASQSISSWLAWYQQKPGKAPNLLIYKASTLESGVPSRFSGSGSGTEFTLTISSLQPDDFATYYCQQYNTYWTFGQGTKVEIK", 66.2),
    ("M199-A08 (Fab, V domains shown) VH: EVQLLESGGGLVQPGGSLRLSCAASGFTFSHYIMMWVRQAPGKGLEWVSGIYSSGGITVYADSVKGRFTISRDNSKNTLYLQMNSLRAEDTAVYYCAYRRIGVPRRDEFDIWGQGTMVTVSS VL: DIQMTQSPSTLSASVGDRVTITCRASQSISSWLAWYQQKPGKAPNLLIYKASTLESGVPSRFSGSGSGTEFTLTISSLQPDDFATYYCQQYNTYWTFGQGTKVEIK", 96.4),
]
